So I've got a bunch of molecules here, and I need their TGI values.
- Tested on: BT-549 breast
- assayNotes: NCI tumour cell line growth inhibition, 48 h

CSc1nn(C)cc2ncnc1-2 = > 100 µM
COc1ccc2c(=O)cc(-c3ccc(OC)c(OC)c3OC)oc2c1 = > 100 µM
CC(=O)Nc1cccc(N2C(=O)/C(=C\c3cccc(Oc4ccccc4)c3)S(=O)(=O)C2c2ccccc2)c1 (configuration not stated) = > 100 µM
CCOC(=O)CC1(Cc2ccc(OCc3ccccc3)cc2)C(=O)OC(c2ccccc2)N1C(=O)c1ccccc1 (configuration not stated) = > 100 µM
CC(=O)CC/C=C(\C)[C@H](O)[C@H](C)C(=O)O[C@H]1C[C@H](C)C=C2C=C[C@@]3(C)O[C@@H](O)CC(=O)[C@]3(C)[C@H]21 = 3.76 µM

State the recorded TGI for every item in the following list.
1. CC(C)[C@@](O)(c1ccc2cc(OC(F)F)c(OC(F)F)cc2c1)c1cn[nH]n1
2. COc1ccc2[nH]c3c(c2c1)CC(=O)N1CCCC(CC3O)C1 (configuration not stated)
3. C/C(N)=C/C(=O)c1[nH]c(C(=O)O)cc1C1CCN(Cc2ccccc2)C1=O (configuration not stated)
4. COc1ccc(NC(C)=O)cc1N1C(=O)/C(=C\c2ccccc2)SC1c1cc(OC)c(OC)c(OC)c1 (configuration not stated)
5. N#Cc1ccc(-c2nc3c(N)nc(-c4ccccc4)nc3o2)cc1

**Result**
["29.5 µM", "> 100 µM", "74.6 µM", "> 100 µM", "> 100 µM"]

State the recorded TGI for every item in the following list.
1. COC1=C(C)C(=O)c2c(c(CCCl)c3n2CCC3OC(C)=O)C1=O (configuration not stated)
2. S=c1c2[nH]cnc2ncn1CCSC1=NC=NC2=NC=NC21 (configuration not stated)
3. O=C1CC(c2ccccc2)Cc2nc3ccc(Br)cc3cc21 (configuration not stated)
4. C=CC(=O)N1C[C@@H]2CCOc3c(Cl)c(-c4c(O)cccc4F)c(F)c4ncnc(c34)N2C[C@H]1C
5. O=C(O)CC(NC(=O)/C(=C/c1ccccc1)NC(=O)c1ccccc1)C(=O)O (configuration not stated)
6. CC(=O)NCCCCN(CCCNC(C)=O)C(=O)CNS(=O)(=O)c1cccc2c(N(C)C)cccc12
7. O=C1CSC(c2ccccc2)N1c1ccc(-n2c(-c3ccccc3)nc3ccccc3c2=O)cc1 (configuration not stated)

**Result**
["0.652 µM", "> 100 µM", "15.9 µM", "12.9 µM", "> 100 µM", "> 100 µM", "> 100 µM"]
